Entries with their measured pKi, system Carbonic anhydrase 2 (Homo sapiens, UniProt P00918):
pKi: −log10 of the molar value.
Recorded Endpoint: pKi

1. Cc1c(CCO)sc[n+]1Cc1ccccc1: 6.98

A = Cc1ncc(C[n+]2csc(CCO)c2C)c(N)n1
B = Cc1c(CCO)sc[n+]1C
Query block: Which of the two gives a bigger number for pKi: A or B ? Choose, then provide that item's label.
Result block: A
(A: 7.07, B: 6.11)

* * *

Subject Of Test: Carbonic anhydrase 1 (Homo sapiens)
Sequence (P00915 whole entry): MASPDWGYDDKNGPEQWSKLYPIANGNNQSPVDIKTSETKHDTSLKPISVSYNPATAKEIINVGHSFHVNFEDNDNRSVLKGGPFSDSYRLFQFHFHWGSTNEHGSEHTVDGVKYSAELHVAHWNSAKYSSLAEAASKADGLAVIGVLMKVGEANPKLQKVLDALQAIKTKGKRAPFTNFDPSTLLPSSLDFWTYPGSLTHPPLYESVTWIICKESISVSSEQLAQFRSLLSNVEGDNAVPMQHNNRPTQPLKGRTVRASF
Recorded Endpoint: Ki (nM)

1) Cc1c(CCO)sc[n+]1Cc1ccccc1: 1150

I = Cc1c(CCO)sc[n+]1C
II = Cc1ncc(C[n+]2csc(CCO)c2C)c(N)n1
Query block: Of I and II , which shows the smaller Ki value? Choose, then provide that item's label.
Result block: II
(II: 380 nM, I: 2270 nM)
